# targetDesc: Epac1 (Homo sapiens)
# Construct: made in house
# experimentNotes: Epac activation assay, Epac1
# Format: biochemical
# protocolConditions: Epac1
measuredQuantity: AC50

See these solved cases before continuing.
[
  {
    "compound": "CNc1nc2c(N)ncnc2n1[C@@H]1O[C@@H]2COP(=O)(O)O[C@H]2[C@H]1Cl [D-001, 8-MeA-2′-Cl-cAMP]",
    "AC50": "330 µM"
  },
  {
    "compound": "Nc1ncnc2c1ncn2[C@@H]1O[C@@H]2COP(=O)(O)O[C@H]2[C@H]1OCc1ccccc1 [Z-008, 2′-O-Bn-cAMP]",
    "AC50": "75 µM"
  }
]

Shift focus to the following entry.
## Task Reported AC50 for Epac1 (Homo sapiens), given Nc1ncnc2c1nc(Br)n2[C@@H]1O[C@@H]2CO[P@](O)(=S)O[C@H]2[C@H]1Cl [S-013, Sp-8-Br-2′-Cl-cAMPS] ?
## Result 110 µM

====

What kobs was measured for each of the following?
# targetDesc: Epac1 (Homo sapiens, UniProt O95398)
# Construct: made in house
# Sequence (O95398 150-881 isoform O95398-3): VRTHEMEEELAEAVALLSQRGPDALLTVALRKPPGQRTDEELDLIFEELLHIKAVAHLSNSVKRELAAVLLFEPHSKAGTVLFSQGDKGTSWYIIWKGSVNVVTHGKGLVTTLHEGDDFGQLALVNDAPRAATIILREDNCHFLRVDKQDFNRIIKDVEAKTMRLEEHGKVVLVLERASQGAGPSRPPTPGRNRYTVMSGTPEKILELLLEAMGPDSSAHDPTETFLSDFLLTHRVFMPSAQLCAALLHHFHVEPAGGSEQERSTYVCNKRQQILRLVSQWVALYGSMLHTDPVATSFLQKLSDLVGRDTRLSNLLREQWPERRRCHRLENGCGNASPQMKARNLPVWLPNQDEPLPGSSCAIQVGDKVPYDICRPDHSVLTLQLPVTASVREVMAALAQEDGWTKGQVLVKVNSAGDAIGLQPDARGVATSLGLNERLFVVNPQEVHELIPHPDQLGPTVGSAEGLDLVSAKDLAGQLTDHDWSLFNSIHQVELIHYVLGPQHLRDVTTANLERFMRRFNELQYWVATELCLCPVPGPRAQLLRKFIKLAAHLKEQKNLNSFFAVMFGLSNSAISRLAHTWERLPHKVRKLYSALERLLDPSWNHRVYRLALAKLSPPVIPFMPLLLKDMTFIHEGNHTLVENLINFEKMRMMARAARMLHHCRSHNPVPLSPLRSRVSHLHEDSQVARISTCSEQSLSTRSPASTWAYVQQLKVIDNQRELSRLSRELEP
# experimentNotes: Epac activation assay, Epac1
# Assay type: biochemical
# protocolConditions: 3 μM compound
Numbers only, in s⁻¹.

For each entry beneath this line, provide reported kobs.
1. Nc1ncnc2c1nc(SCc1ccccc1)n2[C@@H]1O[C@@H]2CO[P@](O)(=S)O[C@H]2[C@H]1O
2. Cc1ccc(CSc2nc3c(N)ncnc3n2[C@@H]2O[C@@H]3CO[P@](O)(=S)O[C@H]3[C@H]2O)cc1
3. Nc1ncnc2c1ncn2[C@@H]1O[C@@H]2COP(=O)(O)O[C@H]2[C@H]1O [cAMP, reference compound]

## Result
1: 7.9e-05; 2: 2.6e-05; 3: 9.3e-05

## Task Reported kobs for Epac1 (Homo sapiens, UniProt O95398), given COC1C2OP(=O)(O)OCC2OC1n1c(Sc2ccc(Cl)cc2)nc2c(N)ncnc21 [D-007, 8-pCPT-2′-O-Me-cAMP, reference compound] ?
## Result 0.00266
